- EXPERIMENTAL SYSTEM: Hexokinase HKDC1 (Homo sapiens) (UniProt Q2TB90)
- Sequence (Q2TB90 whole entry, looked up): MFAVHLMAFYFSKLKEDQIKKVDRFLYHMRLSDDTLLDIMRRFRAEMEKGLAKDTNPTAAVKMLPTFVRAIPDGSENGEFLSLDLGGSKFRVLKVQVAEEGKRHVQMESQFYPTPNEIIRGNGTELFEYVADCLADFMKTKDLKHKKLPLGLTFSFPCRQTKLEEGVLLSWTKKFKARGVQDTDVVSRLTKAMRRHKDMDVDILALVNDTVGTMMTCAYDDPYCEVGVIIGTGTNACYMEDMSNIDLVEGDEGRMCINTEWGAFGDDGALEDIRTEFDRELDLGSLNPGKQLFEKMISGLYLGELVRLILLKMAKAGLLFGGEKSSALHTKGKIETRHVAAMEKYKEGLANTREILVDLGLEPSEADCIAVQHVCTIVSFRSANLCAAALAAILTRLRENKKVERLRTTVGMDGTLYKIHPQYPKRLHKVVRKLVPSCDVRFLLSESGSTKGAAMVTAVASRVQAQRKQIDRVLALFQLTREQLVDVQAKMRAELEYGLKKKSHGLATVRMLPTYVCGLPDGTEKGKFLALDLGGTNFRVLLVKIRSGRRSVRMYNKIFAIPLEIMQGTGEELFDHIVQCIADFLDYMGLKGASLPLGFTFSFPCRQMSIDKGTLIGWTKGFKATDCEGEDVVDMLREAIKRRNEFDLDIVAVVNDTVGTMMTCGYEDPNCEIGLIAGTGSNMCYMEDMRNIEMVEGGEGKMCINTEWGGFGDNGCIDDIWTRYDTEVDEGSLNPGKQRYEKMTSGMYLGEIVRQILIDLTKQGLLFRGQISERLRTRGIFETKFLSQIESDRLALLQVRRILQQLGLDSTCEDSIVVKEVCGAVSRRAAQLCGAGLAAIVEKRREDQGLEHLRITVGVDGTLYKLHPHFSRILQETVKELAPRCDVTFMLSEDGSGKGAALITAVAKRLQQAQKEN
- PROCEDURE SUMMARY: HKDC1 hexokinase inhibitors, confirmation, biochemical, single concentration (AID 504710)
- PROTOCOL CONDITIONS: recombinant HKDC1, G6PDH/diaphorase/resazurin fluorescence; at 20 µM
Active and inactive are the calls of the source.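 The calls were made as follows: active = inhibition reaching about 16% in any single replicate (limit read from the data); inactive = the rest.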
Response enum: active, inactive

Here are 5 molecules together with their reported answers.
{"MOLECULE": "Cc1oc2c(c1C(=O)c1ccc(Cl)cc1)C(=O)C(=O)c1ccccc1-2", "LABEL CLASS": "active"}
{"MOLECULE": "CC(NC(=O)c1sc2cc([N+](=O)[O-])ccc2c1Cl)C(C)(C)C (stereo unspecified)", "LABEL CLASS": "inactive"}
{"MOLECULE": "CC(=O)NC1C(=O)N(CCN2CCOCC2)c2ccc(F)cc21 (stereo unspecified)", "LABEL CLASS": "active"}
{"MOLECULE": "Cc1cc(C)n2nc(SCc3nnc(SCc4ccccc4C)s3)nc2n1", "LABEL CLASS": "active"}
{"MOLECULE": "COC1=C(Br)C(=O)c2ncccc2C1=O", "LABEL CLASS": "active"}

Shift focus to the following entry.
// query # lookup: test call for `COc1ccc(C(=O)c2coc3c2C(=O)C(=O)c2ccccc2-3)cc1`
// result active

The values you see were collected from PubChem BioAssay AID504710.
